B1: ESRRA (parent)
chain: SLPLQDELAFAEDLVLDEEGARAA

- Variants of: B1
- protocol-details: protein stability index of a GFP-peptide fusion (GPS, HEK-293T) (PSI 1-6); higher = more stable;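 further: lentivirally expressed fusions sorted by FACS into six bins by GFP to DsRed ratio, PSI derived from sequencing read proportions per bin multiplied by bin number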
- run-conditions: c terminus: a fixed tail appended
property-name: protein stability index

- mutation-code: "L16E"
  property-name: "protein stability index"
  quantitative-readout: 5.2
- mutation-code: "Q5I"
  property-name: "protein stability index"
  quantitative-readout: 3.37
- mutation-code: "E7N"
  property-name: "protein stability index"
  quantitative-readout: 4.51
- mutation-code: "L4E"
  property-name: "protein stability index"
  quantitative-readout: 5.59
- mutation-code: "G20N"
  property-name: "protein stability index"
  quantitative-readout: 3.52
- mutation-code: "L14R"
  property-name: "protein stability index"
  quantitative-readout: 4.2
- mutation-code: "F10V"
  property-name: "protein stability index"
  quantitative-readout: 3.69
- mutation-code: "E12M"
  property-name: "protein stability index"
  quantitative-readout: 4.88
- mutation-code: "L2S"
  property-name: "protein stability index"
  quantitative-readout: 4.21
- mutation-code: "A24R"
  property-name: "protein stability index"
  quantitative-readout: 2.8
- mutation-code: "V15W"
  property-name: "protein stability index"
  quantitative-readout: 4.85
- mutation-code: "D13W"
  property-name: "protein stability index"
  quantitative-readout: 3.31
- mutation-code: "A9N"
  property-name: "protein stability index"
  quantitative-readout: 3.88
- mutation-code: "P3F"
  property-name: "protein stability index"
  quantitative-readout: 4.6
- mutation-code: "A24K"
  property-name: "protein stability index"
  quantitative-readout: 2.96
- mutation-code: "A11L"
  property-name: "protein stability index"
  quantitative-readout: 4.97
- mutation-code: "A11W"
  property-name: "protein stability index"
  quantitative-readout: 3.02
- mutation-code: "A21W"
  property-name: "protein stability index"
  quantitative-readout: 3.2
- mutation-code: "R22T"
  property-name: "protein stability index"
  quantitative-readout: 4.45
- mutation-code: "S1C"
  property-name: "protein stability index"
  quantitative-readout: 2.93
- mutation-code: "A23L"
  property-name: "protein stability index"
  quantitative-readout: 2.56
- mutation-code: "D17W"
  property-name: "protein stability index"
  quantitative-readout: 2.62
- mutation-code: "E7R"
  property-name: "protein stability index"
  quantitative-readout: 4.96
- mutation-code: "L8A"
  property-name: "protein stability index"
  quantitative-readout: 5.07
- mutation-code: "E12F"
  property-name: "protein stability index"
  quantitative-readout: 4.52
- mutation-code: "R22G"
  property-name: "protein stability index"
  quantitative-readout: 3.13
- mutation-code: "F10W"
  property-name: "protein stability index"
  quantitative-readout: 2.96
- mutation-code: "E18F"
  property-name: "protein stability index"
  quantitative-readout: 3.24
- mutation-code: "D13C"
  property-name: "protein stability index"
  quantitative-readout: 2.31
- mutation-code: "G20A"
  property-name: "protein stability index"
  quantitative-readout: 4.48
- mutation-code: "Q5T"
  property-name: "protein stability index"
  quantitative-readout: 5.34
- mutation-code: "E18G"
  property-name: "protein stability index"
  quantitative-readout: 2.93
- mutation-code: "A21P"
  property-name: "protein stability index"
  quantitative-readout: 3.14
- mutation-code: "L2W"
  property-name: "protein stability index"
  quantitative-readout: 2.69
- mutation-code: "D6E"
  property-name: "protein stability index"
  quantitative-readout: 2.67
- mutation-code: "R22Q"
  property-name: "protein stability index"
  quantitative-readout: 3.45
- mutation-code: "E7P"
  property-name: "protein stability index"
  quantitative-readout: 5.58
- mutation-code: "Q5G"
  property-name: "protein stability index"
  quantitative-readout: 4.43
- mutation-code: "P3S"
  property-name: "protein stability index"
  quantitative-readout: 5.28
- mutation-code: "E7L"
  property-name: "protein stability index"
  quantitative-readout: 3.66
- mutation-code: "R22K"
  property-name: "protein stability index"
  quantitative-readout: 3.12
- mutation-code: "L14A"
  property-name: "protein stability index"
  quantitative-readout: 4.45
- mutation-code: "R22M"
  property-name: "protein stability index"
  quantitative-readout: 3.42
- mutation-code: "D6Y"
  property-name: "protein stability index"
  quantitative-readout: 2.02
- mutation-code: "D13F"
  property-name: "protein stability index"
  quantitative-readout: 3.31
- mutation-code: "L16V"
  property-name: "protein stability index"
  quantitative-readout: 4.15
- mutation-code: "A21G"
  property-name: "protein stability index"
  quantitative-readout: 2.77
- mutation-code: "A21V"
  property-name: "protein stability index"
  quantitative-readout: 3.14
- mutation-code: "L4R"
  property-name: "protein stability index"
  quantitative-readout: 5.1
- mutation-code: "E18D"
  property-name: "protein stability index"
  quantitative-readout: 4.8
- mutation-code: "A9D"
  property-name: "protein stability index"
  quantitative-readout: 5.39
- mutation-code: "P3A"
  property-name: "protein stability index"
  quantitative-readout: 4.97
- mutation-code: "S1K"
  property-name: "protein stability index"
  quantitative-readout: 3.09
- mutation-code: "S1A"
  property-name: "protein stability index"
  quantitative-readout: 3.94
- mutation-code: "R22E"
  property-name: "protein stability index"
  quantitative-readout: 4.36
- mutation-code: "A24H"
  property-name: "protein stability index"
  quantitative-readout: 3.66
- mutation-code: "Q5S"
  property-name: "protein stability index"
  quantitative-readout: 4.79
- mutation-code: "L8T"
  property-name: "protein stability index"
  quantitative-readout: 4.84
- mutation-code: "E19I"
  property-name: "protein stability index"
  quantitative-readout: 1.74
- mutation-code: "A9H"
  property-name: "protein stability index"
  quantitative-readout: 3.67
- mutation-code: "P3Q"
  property-name: "protein stability index"
  quantitative-readout: 4.21
- mutation-code: "L2M"
  property-name: "protein stability index"
  quantitative-readout: 3.48
- mutation-code: "L16K"
  property-name: "protein stability index"
  quantitative-readout: 3.24
- mutation-code: "D6G"
  property-name: "protein stability index"
  quantitative-readout: 3.37
- mutation-code: "A11F"
  property-name: "protein stability index"
  quantitative-readout: 4.89
- mutation-code: "A23G"
  property-name: "protein stability index"
  quantitative-readout: 4.15
- mutation-code: "E7H"
  property-name: "protein stability index"
  quantitative-readout: 3.94
- mutation-code: "L16A"
  property-name: "protein stability index"
  quantitative-readout: 3.83
- mutation-code: "R22W"
  property-name: "protein stability index"
  quantitative-readout: 2.53
- mutation-code: "L14W"
  property-name: "protein stability index"
  quantitative-readout: 4.92
- mutation-code: "L8P"
  property-name: "protein stability index"
  quantitative-readout: 5.3
- mutation-code: "L16G"
  property-name: "protein stability index"
  quantitative-readout: 4.85
- mutation-code: "A9E"
  property-name: "protein stability index"
  quantitative-readout: 4.7
- mutation-code: "D6Q"
  property-name: "protein stability index"
  quantitative-readout: 2.91
- mutation-code: "E12P"
  property-name: "protein stability index"
  quantitative-readout: 5.03
- mutation-code: "V15E"
  property-name: "protein stability index"
  quantitative-readout: 5.82
- mutation-code: "E12K"
  property-name: "protein stability index"
  quantitative-readout: 5.28
- mutation-code: "E19V"
  property-name: "protein stability index"
  quantitative-readout: 2.83
- mutation-code: "F10E"
  property-name: "protein stability index"
  quantitative-readout: 4.35

Reference source: the supplement of paper PMC10567573
